Observed pIC50 for Acetylcholinesterase (Homo sapiens), reported per entry below.
Entry type: numeric. Quantity: pIC50, the -log10 of concentration in molar units.

Record excerpt, results attached:
CN(Cc1ccc(COc2ccc3c(CO)cc(=O)oc3c2)cc1)Cc1cccc(F)c1; 6.48
Cc1c(C)c2ccc(OCC3CCN(Cc4cccc(C(F)(F)F)c4)CC3)cc2oc1=O; 6.33

Let us examine a further case.
[ask] State its pIC50 on Acetylcholinesterase (Homo sapiens): Cc1c(C)c2ccc(OCC3CCCN(CCCC(F)F)C3)cc2oc1=O (racemic)
Sequence (P22303 whole entry): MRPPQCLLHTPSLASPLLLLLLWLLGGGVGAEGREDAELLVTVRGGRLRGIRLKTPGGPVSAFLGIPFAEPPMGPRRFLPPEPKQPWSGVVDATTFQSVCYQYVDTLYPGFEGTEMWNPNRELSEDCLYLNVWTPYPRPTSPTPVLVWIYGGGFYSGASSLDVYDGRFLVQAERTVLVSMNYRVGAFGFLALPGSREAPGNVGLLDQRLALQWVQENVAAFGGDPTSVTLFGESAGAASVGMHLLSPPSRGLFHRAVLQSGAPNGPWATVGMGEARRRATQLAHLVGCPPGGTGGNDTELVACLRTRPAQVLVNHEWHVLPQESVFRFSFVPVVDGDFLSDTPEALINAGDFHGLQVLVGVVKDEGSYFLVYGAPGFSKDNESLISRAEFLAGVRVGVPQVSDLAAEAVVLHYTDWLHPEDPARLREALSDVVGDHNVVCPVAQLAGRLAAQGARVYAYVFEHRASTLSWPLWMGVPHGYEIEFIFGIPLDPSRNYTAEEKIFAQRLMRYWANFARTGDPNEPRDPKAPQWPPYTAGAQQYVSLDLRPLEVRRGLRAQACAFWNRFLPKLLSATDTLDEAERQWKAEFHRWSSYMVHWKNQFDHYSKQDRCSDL
[reply] 6.32

----------
Assay overview: Microsomal stability in mouse liver microsomes assessed as half life at 0.5 uM incubated upto 30 mins in presence of NADPH by LC/MS/MS analysis
Type: ADME, Microsome
Simple rule here: half-life at 0.5 µM less than 30 min is Criterion met, otherwise Criterion not met.

CN(Cc1ccc(COc2ccc3c(CO)cc(=O)oc3c2)cc1)Cc1cccc(F)c1; Criterion not met
Cc1c(C)c2ccc(OCC3CCCN(CCCC(F)F)C3)cc2oc1=O (racemic); Criterion met
Cc1c(C)c2ccc(OCC3CCCN(Cc4cccc(F)c4)C3)cc2oc1=O (racemic); Criterion met

[ask] Given the entry `Cc1c(C)c2ccc(OCC3CCN(Cc4cccc(F)c4)CC3)cc2oc1=O` , would its reported half-life at 0.5 µM be below 30 min?
[reply] Criterion met

[ask] Take the molecule `CN(Cc1ccccc1)Cc1ccc(COc2ccc3c(CO)cc(=O)oc3c2)cc1` and say whether its half-life at 0.5 µM is less than 30 min.
[reply] Criterion not met
